Readings of pIC50 for the listed compounds
assayed.system: p110β/p85α (Homo sapiens (Human))
Sequence (P42338 whole entry): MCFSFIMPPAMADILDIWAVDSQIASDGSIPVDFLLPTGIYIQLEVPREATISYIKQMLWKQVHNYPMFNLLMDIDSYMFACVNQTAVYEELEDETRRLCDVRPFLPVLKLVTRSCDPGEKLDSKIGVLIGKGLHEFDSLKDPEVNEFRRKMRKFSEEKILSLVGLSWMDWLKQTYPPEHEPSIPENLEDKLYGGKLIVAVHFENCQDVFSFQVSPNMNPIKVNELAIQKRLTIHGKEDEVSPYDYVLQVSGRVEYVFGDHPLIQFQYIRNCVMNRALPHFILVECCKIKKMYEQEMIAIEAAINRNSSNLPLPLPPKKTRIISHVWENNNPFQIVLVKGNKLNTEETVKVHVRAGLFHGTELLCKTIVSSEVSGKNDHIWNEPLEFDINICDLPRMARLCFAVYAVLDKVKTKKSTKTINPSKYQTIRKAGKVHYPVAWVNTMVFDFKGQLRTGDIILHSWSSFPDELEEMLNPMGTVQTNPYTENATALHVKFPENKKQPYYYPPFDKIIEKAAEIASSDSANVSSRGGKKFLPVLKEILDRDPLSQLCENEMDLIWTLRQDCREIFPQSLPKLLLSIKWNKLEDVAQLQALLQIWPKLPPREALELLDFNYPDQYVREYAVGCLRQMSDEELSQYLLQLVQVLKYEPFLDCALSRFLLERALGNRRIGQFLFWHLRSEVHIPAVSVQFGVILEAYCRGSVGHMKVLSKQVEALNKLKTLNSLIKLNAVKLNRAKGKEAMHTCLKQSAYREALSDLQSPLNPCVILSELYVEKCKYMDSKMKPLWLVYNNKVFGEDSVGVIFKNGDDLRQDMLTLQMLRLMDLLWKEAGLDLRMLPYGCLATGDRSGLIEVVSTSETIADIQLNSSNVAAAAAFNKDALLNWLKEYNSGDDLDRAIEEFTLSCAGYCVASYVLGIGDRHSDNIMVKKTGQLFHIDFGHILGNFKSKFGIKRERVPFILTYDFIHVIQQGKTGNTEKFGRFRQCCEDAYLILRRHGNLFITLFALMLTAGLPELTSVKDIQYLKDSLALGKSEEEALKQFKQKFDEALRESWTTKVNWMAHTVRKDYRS
Sequence (P27986 whole entry partner): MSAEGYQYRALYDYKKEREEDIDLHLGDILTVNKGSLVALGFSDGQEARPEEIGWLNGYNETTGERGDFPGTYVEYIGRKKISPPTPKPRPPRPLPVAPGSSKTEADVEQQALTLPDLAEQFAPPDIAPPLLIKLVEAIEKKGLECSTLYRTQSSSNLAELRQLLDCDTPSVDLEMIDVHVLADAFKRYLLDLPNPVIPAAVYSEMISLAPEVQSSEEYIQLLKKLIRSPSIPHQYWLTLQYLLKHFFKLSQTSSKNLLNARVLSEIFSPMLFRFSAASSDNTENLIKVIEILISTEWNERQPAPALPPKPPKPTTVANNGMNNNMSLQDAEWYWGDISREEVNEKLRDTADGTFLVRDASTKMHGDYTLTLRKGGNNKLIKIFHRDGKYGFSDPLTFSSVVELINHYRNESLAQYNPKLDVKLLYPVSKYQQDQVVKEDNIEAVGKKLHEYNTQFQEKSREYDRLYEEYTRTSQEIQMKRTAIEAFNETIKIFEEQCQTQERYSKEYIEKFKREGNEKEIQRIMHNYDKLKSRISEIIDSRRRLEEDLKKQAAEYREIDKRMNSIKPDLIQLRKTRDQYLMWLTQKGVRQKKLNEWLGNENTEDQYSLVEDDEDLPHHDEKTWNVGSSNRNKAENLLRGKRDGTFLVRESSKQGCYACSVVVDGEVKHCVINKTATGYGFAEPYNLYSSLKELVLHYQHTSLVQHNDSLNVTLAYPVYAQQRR
assay.details: PI 3-Kinase (human) HTRF assay, p110β/p85α
Format: biochemical
test.parameters: read-out: PI3K β In Vitro IC50
pIC50: −log10 of the molar value.

Known pIC50 results, listed for orientation:
CC(=O)Nc1nc2ccc(-c3cc(F)c4oc(N)nc4c3)cc2s1 [compound 434] | > 7.00
Nc1nc2cc(-c3ccc4ncc(C(=O)N5CCn6cncc6C5)n4c3)ccc2o1 [compound 493] | > 6.00
Nc1nc2cc(-c3ccn4ncc(C(=O)N5CCC(N6CCOCC6)CC5)c4c3)ccc2o1 [compound 398] | > 5.00

Prompt line: # lookup: pIC50 of C[C@H]1CN(C2CN(C(=O)c3cnc4ccc(-c5ccc6oc(N)nc6c5)cn34)C2)CCN1 [compound 510]
Response line: > 5.00
